Below: a set of entries, each annotated with reported Min cell viability %, HEK293/H_LIV-1.
- tested-system: T1, human LIV-1 (human, UniProt Q13433 29-755)
- T1 sequence (looked up): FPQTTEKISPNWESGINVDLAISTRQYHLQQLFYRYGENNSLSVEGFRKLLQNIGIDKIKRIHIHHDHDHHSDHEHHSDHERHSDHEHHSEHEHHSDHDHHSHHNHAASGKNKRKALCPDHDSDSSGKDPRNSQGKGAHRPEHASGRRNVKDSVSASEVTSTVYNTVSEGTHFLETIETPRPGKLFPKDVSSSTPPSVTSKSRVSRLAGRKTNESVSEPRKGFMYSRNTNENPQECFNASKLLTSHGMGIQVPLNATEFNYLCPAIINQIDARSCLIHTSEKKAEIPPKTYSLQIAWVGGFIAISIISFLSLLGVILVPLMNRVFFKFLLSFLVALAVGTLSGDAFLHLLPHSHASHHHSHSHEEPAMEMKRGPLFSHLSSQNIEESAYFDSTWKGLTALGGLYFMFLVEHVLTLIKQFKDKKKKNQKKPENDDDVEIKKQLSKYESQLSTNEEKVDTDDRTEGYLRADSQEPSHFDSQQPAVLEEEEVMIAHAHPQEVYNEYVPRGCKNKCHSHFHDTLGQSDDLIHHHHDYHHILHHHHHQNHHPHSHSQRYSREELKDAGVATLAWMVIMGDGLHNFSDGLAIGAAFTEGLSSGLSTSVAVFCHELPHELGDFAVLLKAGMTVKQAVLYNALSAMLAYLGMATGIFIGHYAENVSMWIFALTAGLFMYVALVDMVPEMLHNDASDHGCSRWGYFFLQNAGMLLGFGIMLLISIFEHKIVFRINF
- procedure-summary: cell-based or functional assay
property-name: Min cell viability %, HEK293/H_LIV-1

| binder | property-name | observed-measurement |
| --- | --- | --- |
| 5D6B10.z7-Eribulin (antibody, V domains shown, Eribulin drug moiety conjugated; site and chain not stated, Antibody-drug conjugate of 5D6B10.z7; human gamma 1/kappa) VH: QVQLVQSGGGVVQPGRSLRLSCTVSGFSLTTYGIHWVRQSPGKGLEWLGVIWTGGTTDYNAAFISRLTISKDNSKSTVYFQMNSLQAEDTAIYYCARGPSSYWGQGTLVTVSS VL: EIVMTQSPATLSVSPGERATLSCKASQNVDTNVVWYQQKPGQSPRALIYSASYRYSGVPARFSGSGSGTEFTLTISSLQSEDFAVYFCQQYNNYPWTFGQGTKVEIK | Min cell viability %, HEK293/H_LIV-1 | 21.2% |
| 124H4D11.p2.z4-Eribulin (antibody, V domains shown, Eribulin drug moiety conjugated; site and chain not stated, Antibody-drug conjugate of 124H4D11.p2.z4; human gamma 1/kappa) VH: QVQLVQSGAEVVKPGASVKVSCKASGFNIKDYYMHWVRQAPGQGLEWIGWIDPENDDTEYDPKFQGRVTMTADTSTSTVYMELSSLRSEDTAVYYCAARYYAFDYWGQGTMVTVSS VL: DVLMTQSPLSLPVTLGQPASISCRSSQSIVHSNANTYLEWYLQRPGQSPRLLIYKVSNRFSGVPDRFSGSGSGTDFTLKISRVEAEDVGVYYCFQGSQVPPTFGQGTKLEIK | Min cell viability %, HEK293/H_LIV-1 | 21.5% |
| 290F10G10.z2-MMAE (antibody, V domains shown, MMAE drug moiety conjugated; site and chain not stated, also called LM-001-MMAE) VH: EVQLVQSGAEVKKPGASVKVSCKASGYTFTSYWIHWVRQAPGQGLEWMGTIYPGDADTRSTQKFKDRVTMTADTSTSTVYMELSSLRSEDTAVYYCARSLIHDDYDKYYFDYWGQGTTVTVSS VL: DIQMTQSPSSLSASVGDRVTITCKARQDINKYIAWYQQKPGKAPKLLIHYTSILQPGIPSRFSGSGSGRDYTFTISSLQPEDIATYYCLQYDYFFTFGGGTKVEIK | Min cell viability %, HEK293/H_LIV-1 | 15.3% |
| 290F10G10.z2-Eribulin (antibody, V domains shown, Eribulin drug moiety conjugated; site and chain not stated) VH: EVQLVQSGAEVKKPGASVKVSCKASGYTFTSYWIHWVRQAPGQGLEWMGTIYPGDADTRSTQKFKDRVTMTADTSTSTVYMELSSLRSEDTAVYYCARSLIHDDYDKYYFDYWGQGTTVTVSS VL: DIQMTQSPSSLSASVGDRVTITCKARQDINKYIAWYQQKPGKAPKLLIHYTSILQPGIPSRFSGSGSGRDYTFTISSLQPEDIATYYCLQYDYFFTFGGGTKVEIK | Min cell viability %, HEK293/H_LIV-1 | 18.4% |
